Entries and their measured IC50 follow.
biological target: HLA-A*26:01 (human); assay: radioligand competition, purified MHC
Kindly answer with a numeric value in µM, unit omitted.

Worked cases, answers included:
[
  {
    "BINDER": "STSAFVETV (modifications not checked) [… (SEQ ID NO: 19)]",
    "MEASURED RESULT": 12.1
  },
  {
    "BINDER": "EIKESVQTF (modifications not checked) [… (SEQ ID NO: 15)]",
    "MEASURED RESULT": 0.0078
  },
  {
    "BINDER": "NATNVVIKV (modifications not checked) [… (SEQ ID NO: 37)]",
    "MEASURED RESULT": 43.4
  }
]

Would you kindly look at the next entry?
State the recorded IC50 for this entry: ELPDEFVVVTV (modifications not checked) [… (SEQ ID NO: 8)]
0.072
